Target: Human BCMA (human) (UniProt Q02223)
Test: SPR, IgG immobilised, huBCMA analyte, 25 C
PARAMETER_MEASURED: Kd (nM)
State the answer as a number, implicitly in nM.

For reference, reported Kd for L1.LGF/L3.NY/H3.AP (antibody, V domains shown) VH: EVQLLESGGGLVQPGGSLRLSCAASGFTFGSYAMTWVRQAPGKGLEWVSAISGSGGNTFYADSVKGRFTISRDNSKNTLYLQMNSLRAEDTAVYYCARVSPIAAPMDYWGQGTLVTVSS VL: EIVLTQSPGTLSLSPGERATLSCRASQSLGSFYLAWYQQKPGQAPRLLIYGASSRATGIPDRFSGSGSGTDFTLTISRLEPEDFAVYYCQHYNYPPSFTFGQGTKVEIK stands at 0.57

The origin of these recorded values is patent US20190241669A1.
